The origin of these recorded values is the array DNA melting data of Ke et al. (doi:10.1101/2024.01.08.574731).

Protocol Details: melting temperature; fluorescence melt of hairpins on a sequencing array, two-state fit, raised by 9.35 °C to match UV melts
Cond: sodium 0.088 M
Each entry gets F if its Tm stays under 50 °C, and T if its Tm is 50 °C or above.

[
  {
    "Input Sequence": "GGCTGCGAAAGCAATGCC ((((((....)))..)))",
    "Cat": "T"
  },
  {
    "Input Sequence": "GCGGCGCGAAAGCTCGGC ((.(.((....)).).))",
    "Cat": "F"
  },
  {
    "Input Sequence": "GAGCTAGGAAACTAGTTC ((.((((....)))).))",
    "Cat": "F"
  },
  {
    "Input Sequence": "GATCTTAGGCAAGATC ((((((....))))))",
    "Cat": "F"
  },
  {
    "Input Sequence": "GGCGCCGGAAACAGCGCC (((((.(....).)))))",
    "Cat": "T"
  },
  {
    "Input Sequence": "GGTAACGGAAACATTACC (((((.(....).)))))",
    "Cat": "F"
  },
  {
    "Input Sequence": "GATAACGAAAGTTAATC ((((((....))).)))",
    "Cat": "F"
  },
  {
    "Input Sequence": "GTCACTGAAAAGTGAC ((((((....))))))",
    "Cat": "T"
  },
  {
    "Input Sequence": "GTGGGTGGAAACATCCGC (.((.((....)).)).)",
    "Cat": "F"
  },
  {
    "Input Sequence": "GTTAGCGAAAGCTAGAAC ((((((....)))..)))",
    "Cat": "F"
  },
  {
    "Input Sequence": "GGCTGTCCGAAAGGAGCC (((..(((....))))))",
    "Cat": "F"
  },
  {
    "Input Sequence": "GATCACCTCGTGATC ((((((...))))))",
    "Cat": "T"
  },
  {
    "Input Sequence": "GTAGAGCGAAAGCTTTAC (((.(((....))).)))",
    "Cat": "F"
  }
]

----------
Protocol Details: melting temperature; fluorescence melt of hairpins on a sequencing array, two-state fit, raised by 9.35 °C to match UV melts
Cond: sodium 0.088 M
Recorded measurements of Tm, one per entry

[
  {
    "Input Sequence": "GATCGACTCTCGATC ((((((...))))))",
    "Tm (°C)": 50.9
  },
  {
    "Input Sequence": "GTAGCCGAAAGGCACTAC ((((((....)))..)))",
    "Tm (°C)": 48.5
  },
  {
    "Input Sequence": "GCAGGGCGAAAGCCCCGC ((.((((....)))).))",
    "Tm (°C)": 62.8
  },
  {
    "Input Sequence": "GGATTCGGAAACGAGTTC (.(.(((....))).).)",
    "Tm (°C)": 28.7
  },
  {
    "Input Sequence": "GGCAGAGGAAACTTTGCC ((((.((....)).))))",
    "Tm (°C)": 48.6
  },
  {
    "Input Sequence": "GGCTGTGGAAACACGGTC (.(.(((....))).).)",
    "Tm (°C)": 44.4
  },
  {
    "Input Sequence": "GATCTCGGAAACGAGACC (.(((((....))))).)",
    "Tm (°C)": 40.7
  },
  {
    "Input Sequence": "GTTCACCGAAAGGTAAAC (((.(((....))).)))",
    "Tm (°C)": 40.5
  },
  {
    "Input Sequence": "GATCCCTCTGGGGATC ((((((....))))))",
    "Tm (°C)": 61.5
  },
  {
    "Input Sequence": "GCAGTAGGAAACTACCGC ((.((((....)))).))",
    "Tm (°C)": 41
  },
  {
    "Input Sequence": "GATCCACTCATGGATC ((((((....))))))",
    "Tm (°C)": 52.5
  },
  {
    "Input Sequence": "GCTGATGAAAATCAGC ((((((....))))))",
    "Tm (°C)": 60.6
  },
  {
    "Input Sequence": "GATCATCTACATGATC ((((((....))))))",
    "Tm (°C)": 46.2
  },
  {
    "Input Sequence": "GATCCAACCATGGATC ((((((....))))))",
    "Tm (°C)": 50
  },
  {
    "Input Sequence": "GATCGCCCTTGCGATC ((((((....))))))",
    "Tm (°C)": 66.9
  },
  {
    "Input Sequence": "GCGCAGGGAAACCTGCAC (.(((((....))))).)",
    "Tm (°C)": 47.6
  },
  {
    "Input Sequence": "GATCATACCAATGATC ((((((....))))))",
    "Tm (°C)": 48.4
  },
  {
    "Input Sequence": "GATGAGGGAAACCTCGTC ((.((((....)))).))",
    "Tm (°C)": 47.9
  },
  {
    "Input Sequence": "GCGCGGCGAAAGCCCGGC ((..(((....)))..))",
    "Tm (°C)": 59.7
  },
  {
    "Input Sequence": "GGTCCCCGAAAGGGCACC (((.(((....))).)))",
    "Tm (°C)": 49
  },
  {
    "Input Sequence": "GAACACGAAAGTGGCTTC ((((((....)))..)))",
    "Tm (°C)": 45.4
  },
  {
    "Input Sequence": "GGGACGGCGAAAGCCCCC (((..(((....))))))",
    "Tm (°C)": 42.3
  },
  {
    "Input Sequence": "GATCTCTAAGAGATC ((((((...))))))",
    "Tm (°C)": 51.5
  },
  {
    "Input Sequence": "GCCGCCGAAAGGCATGGC ((((((....)))..)))",
    "Tm (°C)": 63
  },
  {
    "Input Sequence": "GTGCCTGGAAACGGGCAC (((((.(....).)))))",
    "Tm (°C)": 65.5
  },
  {
    "Input Sequence": "GCACGCGAAAGCGCATGC ((((((....)))..)))",
    "Tm (°C)": 43
  },
  {
    "Input Sequence": "CGGGCGGAAACGCTCCG ((((((....))).)))",
    "Tm (°C)": 54.2
  },
  {
    "Input Sequence": "GCGCCGGGAAACCAGCGC ((((.((....)).))))",
    "Tm (°C)": 59.1
  },
  {
    "Input Sequence": "GTTTCAGGAAACTGAGAC ((.((((....)))).))",
    "Tm (°C)": 37.3
  },
  {
    "Input Sequence": "GGAGCCGAAAGGCACTCC ((((((....)))..)))",
    "Tm (°C)": 39.9
  },
  {
    "Input Sequence": "GGGTCCGGAAACGGATCC ((.((((....)))).))",
    "Tm (°C)": 59.1
  },
  {
    "Input Sequence": "GGAATCGAAAGATTGTCC ((((((....)))..)))",
    "Tm (°C)": 27.2
  },
  {
    "Input Sequence": "GGGCCTCGAAAGAGCCC (((.(((....))))))",
    "Tm (°C)": 62.3
  },
  {
    "Input Sequence": "GATCAACCTATTGATC ((((((....))))))",
    "Tm (°C)": 41.5
  },
  {
    "Input Sequence": "GGCGAACGAAAGTTGCC (((.(((....))))))",
    "Tm (°C)": 56.9
  },
  {
    "Input Sequence": "GGAGGGGCGAAAGCCTCC (((..(((....))))))",
    "Tm (°C)": 44.8
  },
  {
    "Input Sequence": "GCGACCGGAAACAGCCGC (((.(.(....).).)))",
    "Tm (°C)": 32.5
  },
  {
    "Input Sequence": "GATCGACGAAAGTCCATC (((.(((....))).)))",
    "Tm (°C)": 30
  },
  {
    "Input Sequence": "GCCATGCGAAAGCTCGGC (((..((....))..)))",
    "Tm (°C)": 52.5
  },
  {
    "Input Sequence": "GGCTAAGCGAAAGCTGCC (((..(((....))))))",
    "Tm (°C)": 54.6
  },
  {
    "Input Sequence": "GTGATGCCGAAAGGCCAC (((..(((....))))))",
    "Tm (°C)": 41.6
  },
  {
    "Input Sequence": "GATCCGCAGTCGGATC ((((((....))))))",
    "Tm (°C)": 55.9
  },
  {
    "Input Sequence": "GACGTTGGAAACGATGTC (((.(.(....).).)))",
    "Tm (°C)": 33.4
  },
  {
    "Input Sequence": "GTTGGTGGAAACACTAGC (.(.(((....))).).)",
    "Tm (°C)": 27.8
  },
  {
    "Input Sequence": "GTGCTCACGAAAGTGCAC (((..(((....))))))",
    "Tm (°C)": 48.3
  }
]
